Reported response of secondary antibody on primary antibody-CDH6 complex by item:
Molecular target: T1, hCDH6aa54-615 APPavi (human, UniProt P55285 54-615)
T1 sequence: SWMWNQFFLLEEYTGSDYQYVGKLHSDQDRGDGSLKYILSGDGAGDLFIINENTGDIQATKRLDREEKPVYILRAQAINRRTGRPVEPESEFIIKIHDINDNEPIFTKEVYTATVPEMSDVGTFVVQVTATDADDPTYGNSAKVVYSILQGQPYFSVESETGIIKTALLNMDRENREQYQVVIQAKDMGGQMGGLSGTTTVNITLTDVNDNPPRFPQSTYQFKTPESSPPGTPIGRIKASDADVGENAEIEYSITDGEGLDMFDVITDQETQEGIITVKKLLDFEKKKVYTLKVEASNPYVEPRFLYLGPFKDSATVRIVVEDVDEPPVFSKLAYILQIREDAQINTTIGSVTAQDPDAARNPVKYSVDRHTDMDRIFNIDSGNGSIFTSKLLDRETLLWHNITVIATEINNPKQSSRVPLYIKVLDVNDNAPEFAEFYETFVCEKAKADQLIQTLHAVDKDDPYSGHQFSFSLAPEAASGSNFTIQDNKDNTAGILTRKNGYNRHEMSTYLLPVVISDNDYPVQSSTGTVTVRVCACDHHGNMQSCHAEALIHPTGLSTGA
Assay: SPR binning
READOUT_TYPE: response of secondary antibody on primary antibody-CDH6 complex

INSERT INTO measurements (binder, assay_result) VALUES
  ('NOV0719 (antibody, human IgG1, kappa, V domains shown) VH: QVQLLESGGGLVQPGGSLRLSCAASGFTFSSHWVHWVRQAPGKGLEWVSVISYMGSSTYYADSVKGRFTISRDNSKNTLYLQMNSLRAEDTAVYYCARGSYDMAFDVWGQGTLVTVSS VL: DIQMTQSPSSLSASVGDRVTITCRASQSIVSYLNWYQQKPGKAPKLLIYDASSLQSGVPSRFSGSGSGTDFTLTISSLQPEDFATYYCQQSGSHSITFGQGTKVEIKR', 20.7),
  ('NOV0710 (antibody, human IgG1, kappa, V domains shown) VH: QVQLLESGGGLVQPGGSLRLSCAASGFTFSSYAMSWVRQAPGKGLEWVSVIRSSGSSTYYADSVKGRFTISRDNSKNTLYLQMNSLRAEDTAVYYCARGGGYFDYWGQGTLVTVSS VL: DIQMTQSPSSLSASVGDRVTITCRASQSISLWLNWYQQKPGKAPKLLIYAASTLQSGVPSRFSGSGSGTDFTLTISSLQPEDFATYYCQQYYTSPYTFGQGTKVEIKR', 10.6),
  ('NOV1126 (antibody, human IgG1, lambda, V domains shown) VH: EVQLLESGGGLVQPGGSLRLSCAASGFTFSDHAIDWVRQAPGKGLEWVSVIAGSGSITYYADSVKGRFTISRDNSKNTLYLQMNSLRAEDTAVYYCARDTGVYREYMDVWGQGTLVTVSS VL: SYELTQPLSVSVALGQTARITCSGDAIGTKFAHWYQQKPGQAPVLVIYYDHERPSGIPERFSGSNSGNTATLTISRAQAGDEADYYCYSRASSNLVFGGGTKLTVLG', 30.1),
  ('NOV1132 (antibody, human IgG1, lambda, V domains shown) VH: QVQLQQSGPGLVKPSQTLSLTCAISGDSVSSQSAGWNWIRQSPSRGLEWLGRIYYRSKWYNDYAVSVKSRITINPDTSKNQFSLQLNSVTPEDTAVYYCAREKYTVSFYDFFDYWGQGTLVTVSS VL: SYELTQPLSVSVALGQTARITCSGDNIGSMTAHWYQQKPGQAPVLVIYDKNERPSGIPERFSGSNSGNTATLTISRAQAGDEADYYCQSWDDSYTSVVFGGGTKLTVLG', 1.08),
  ('NOV1127 (antibody, human IgG1, kappa, V domains shown) VH: QVQLQQSGPGLVKPSQTLSLTCAISGDSVSSQSAAWNWIRQSPSRGLEWLGRIYYRSKWYNDYAVSVKSRITINPDTSKNQFSLQLNSVTPEDTAVYYCARERSYRDYFDYWGQGTLVTVSS VL: DIQMTQSPSSLSASVGDRVTITCRASQGIFTYLNWYQQKPGKAPKLLIYAASTLQSGVPSRFSGSGSGTDFTLTISSLQPEDFATYYCQQYYSTSLTFGQGTKVEIKR', 17.8),
  ('NOV0712 (antibody, human IgG1, kappa, V domains shown) VH: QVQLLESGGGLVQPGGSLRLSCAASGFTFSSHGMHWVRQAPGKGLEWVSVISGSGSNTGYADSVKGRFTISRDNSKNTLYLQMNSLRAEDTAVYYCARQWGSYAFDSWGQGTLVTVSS VL: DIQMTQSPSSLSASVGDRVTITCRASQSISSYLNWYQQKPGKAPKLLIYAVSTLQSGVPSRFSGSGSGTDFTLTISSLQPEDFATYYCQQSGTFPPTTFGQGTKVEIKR', 6),
  ('NOV0692 (antibody, human IgG1, lambda, V domains shown) VH: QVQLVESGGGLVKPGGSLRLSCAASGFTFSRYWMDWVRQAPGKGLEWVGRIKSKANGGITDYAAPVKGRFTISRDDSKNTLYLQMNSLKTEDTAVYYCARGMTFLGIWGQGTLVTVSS VL: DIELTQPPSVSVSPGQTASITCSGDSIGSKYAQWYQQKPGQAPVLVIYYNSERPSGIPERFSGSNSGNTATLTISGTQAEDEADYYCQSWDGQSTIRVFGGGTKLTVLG', 23.2);
